system: KB-3-1; assay: Cytotoxic Profiling of Annotated Libraries Using Quantitative High-Throughput Screening (AID 1296008); settings: Five cell lines viability, CellTiter-Glo ATP luminescence, 48-72 h; stronger effect = lower value; note: % is set by controls: 0 for no effect and ±100 for the full control effect; nearly all actives have a fitted effect of over 60% in size
Inconclusive results are not listed. Where a SMILES comes first, the peptide text is derived from it. The star is where a group is joined. PhAc = O=C(Cc1ccccc1)*
// reported max response per item

- molecule: "COc1cncc(C#Cc2ccccn2)c1"
  max response [%]: -1.99
- molecule: "CC1(O)CC(O)C2C(C(=O)O)=COC(OC3OC(CO)C(O)C(O)C3OC(=O)/C=C/c3ccc(O)cc3)C21 (stereo not given)"
  max response [%]: 6.91
- molecule: "CC1(C)C[C@H]2C=C(C=O)[C@]3(C(=O)O)C[C@]3(C)[C@H]2C1"
  max response [%]: 6.21
- molecule: "Cc1nc(-c2cccnc2)sc1C(=O)Nc1ccccc1-c1cn2c(CN3CCOCC3)csc2n1"
  max response [%]: -10.4
- molecule: "CCOC(=O)CNC(=O)[C@@H]1CCCN1C(=O)Cc1ccccc1 (PhAc-Pro-Gly-OEt)"
  max response [%]: 5.86

###

test system: Zika virus NS2B-NS3 protease (unlinked complex); experiment: Primary screen GU Rhodamine qHTS for Zika virus inhibitors: Unlinked NS2B-NS3 protease assay (AID 1347159); conditions: Recombinant ZIKV NS2B-NS3 protease, Rhodamine110 substrate fluorescence; series mostly up to 107 µM; note: % is set by controls: 0 for no effect and ±100 for the full control effect; nearly all actives have a fitted effect of over 60% in size
Records with an inconclusive call do not appear. Activity calls are given as the source filed them. Calls follow the shape of the dose curve; as a rule, active = well fitted inhibition curve with a large enough effect; inconclusive = small, poorly fitted or top-dose-only effect; inactive = no such curve, though single readings can be large or run the other way.
experimentalEndpoint: outcome

- molecule: "CCCO[C@@H]1O[C@H](CO)[C@@H](O)[C@H](O)[C@H]1O[C@@H]1OC[C@@H](O)[C@H](O)[C@H]1O"
  measuredResult: "inactive"
- molecule: "O=C(O)Cc1cn([C@@H]2OC[C@@H](O[C@@H]3O[C@H](CO)[C@@H](O)[C@H](O)[C@H]3O)[C@H](O)[C@H]2O[C@@H]2O[C@H](CO)[C@@H](O)[C@H](O)[C@H]2O)c2ccccc12"
  measuredResult: "inactive"
- molecule: "COc1cc(/C=C/C(=O)O[C@H]2[C@@H]3C=CO[C@@H](O[C@@H]4O[C@H](CO)[C@@H](O)[C@H](O)[C@H]4O)[C@@H]3[C@@]3(CO)O[C@@H]23)ccc1O"
  measuredResult: "inactive"

###

tested on: HACAT; test: qHTS assay to identify novel small-molecules to repurpose for Merkel cell carcinoma treatment (AID 1296009); settings: MCC and control cell lines, CellTiter-Glo viability, 72 h; at 44.8 µM (top of the series) unless noted; note: nearly all actives have a fitted effect of over 60% in size
Results filed as inconclusive are left out. Calls of active or inactive are those of the source. Calls follow the shape of the dose curve; as a rule, active = well fitted inhibition curve with a large enough effect; inconclusive = small, poorly fitted or top-dose-only effect; inactive = flat fitted curve, though single readings scatter.

- compound: "COC(=O)C1=CO[C@@H](O[C@@H]2O[C@H](CO)[C@@H](O)[C@H](O)[C@H]2O)C2C1CC(O)C2C (stereo partly specified)"
  outcome: "inactive"
- compound: "CC1=CC2=C(C)C(=O)[C@](C)(O)[C@H](O)C2=CO1"
  outcome: "inactive"
- compound: "CCN(CCN(C)C)C(=O)CNCc1cc(C(N)=O)ccn1"
  outcome: "inactive"
- compound: "CC1C2=CC(=O)OC2(O)CC2C1C(O)CC1C(C)(CO)CCCC21C (stereo unspecified)"
  outcome: "inactive"
- compound: "COc1cc(C2Oc3c(OC)cc(CCCO)cc3C2CO)ccc1O (stereo unspecified)"
  outcome: "inactive"
- compound: "C=C1C2(C)CC3C4(C)OC(C5OC56C4=CC(=O)OC6(C)C)C3(C)C13C(=O)OC(C)C3(O)C2=O (stereo unspecified)"
  outcome: "inactive [at 17.4 µM]"
- compound: "NC(=O)[C@H](Cc1ccccc1)NC(=O)[C@H](CCCN=C(N)N)NC(=O)C12CC3CC(CC(C3)C1)C2"
  outcome: "inactive [at 9.27 µM]"
- compound: "C=C1CC[C@H]2[C@@](C)(CCC(OC3OC(CO)C(O)C(O)C3O)[C@@]2(C)CO)C1C(=O)CC1=CCOC1=O (stereo partly specified)"
  outcome: "inactive [at 17.4 µM]"
- compound: "Cc1nc(-c2cccnc2)sc1C(=O)Nc1ccccc1-c1cn2c(CN3CCOCC3)csc2n1"
  outcome: "inactive"
- compound: "C[C@@H]1O[C@@H](O[C@@H]2[C@@H](O)[C@H](O[C@H]3[C@H](O[C@H]4CC[C@@]5(C)C(CC[C@]6(C)C5CC=C5[C@@H]7CC(C)(C)CC[C@]7(C(=O)O[C@@H]7O[C@H](CO)[C@@H](O)[C@H](O)[C@H]7O)CC[C@]56C)C4(C)C)O[C@H](C(=O)O)[C@@H](O)[C@@H]3O)OC[C@H]2O)[C@H](O)[C@H](O)[C@H]1O (stereo partly specified)"
  outcome: "inactive [at 9.27 µM]"
- compound: "C=CCC/C=C/C#CCCCCCCCC[C@H]1C(=O)O[C@H](C)[C@@H]1O"
  outcome: "inactive"
- compound: "O=C(O)Cn1nnc(-c2ccc(CN(CCCCOc3ccc(CN4CCCC4)cc3)CCc3ccccc3)cc2)n1"
  outcome: "inactive"
- compound: "C/C(=C\\C(=O)C[C@@]12C(=O)O[C@]3(C)CC[C@H]1C[C@H]23)C(N)=O"
  outcome: "inactive"
- compound: "COc1cc([C@H]2OC[C@](O)(Cc3ccc(O[C@@H]4O[C@H](CO)[C@@H](O)[C@H](O)[C@H]4O)c(OC)c3)[C@@H]2CO)ccc1O"
  outcome: "inactive [at 17.4 µM]"
- compound: "CC1(C)CC[C@]2(C(=O)O)CC[C@]3(C)C(=CCC4[C@@]5(C)C[C@@H](O)[C@H](O)[C@@](C)(CO)C5CC[C@]43C)C2C1 (stereo partly specified)"
  outcome: "inactive [at 17.4 µM]"
- compound: "COC(=O)C1=COC(O[C@@H]2O[C@H](COC(=O)/C=C/c3ccc(O)cc3)[C@@H](O)[C@H](O)[C@H]2O)C2C(CO)=CCC12 (stereo partly specified)"
  outcome: "inactive [at 17.4 µM]"

###

test system: Tov112D; assay: Primary qHTS to identify gynecologic anti-cancer compounds using libraries of approved drugs and bioactive compounds (AID 1345084); conditions: Gynecologic cancer cell panel viability, ATPlite luminescence, 48 h; series mostly up to 57.5 µM; note: % is set by controls: 0 for no effect and ±100 for the full control effect; nearly all actives have a fitted effect of over 55% in size
Inconclusive results are not listed. The source made the active and inactive calls. Calls come from the whole dose curve; as a rule, active = well fitted cell-killing curve with a large enough effect; inconclusive = small, poorly fitted or top-dose-only effect, or effect the other way; inactive = flat fitted curve, though single readings scatter.

- compound: "COc1ccc(CC(=O)NCc2ccccc2-c2ccccc2C(=O)NCCc2cccnc2)cc1"
  activity change, negative = cytotoxicity: "inactive"
- compound: "CC1(C)CC[C@]2(C(=O)O[C@@H]3O[C@H](CO)[C@@H](O)[C@H](O)[C@H]3O)CC[C@]3(C)C(=CCC4[C@@]5(C)CC[C@H](O[C@H]6O[C@H](CO)[C@@H](O)[C@H](O[C@@H]7O[C@H](CO)[C@@H](O)[C@H](O)[C@H]7O)[C@H]6O)C(C)(C)C5CC[C@]43C)[C@@H]2C1 (stereo partly drawn)"
  activity change, negative = cytotoxicity: "-5.45% [at 11.6 µM] (inactive)"
- compound: "Cc1cc(C(=O)N2Cc3cnn(C)c3Nc3ccccc32)ccc1CNC(=O)N1CCN(Cc2cc(O)cc(O)c2)CC1"
  activity change, negative = cytotoxicity: "inactive"

###

system: NIH3T3; test: Cytotoxic Profiling of Annotated Libraries Using Quantitative High-Throughput Screening (AID 1296008); conditions: Five cell lines viability, CellTiter-Glo ATP luminescence, 48-72 h; stronger effect = lower value; note: % is set by controls: 0 for no effect and ±100 for the full control effect; nearly all actives have a fitted effect of over 60% in size
Results filed as inconclusive are left out.

- compound: "O=C(/C=C/c1ccc(O)cc1)OC[C@@]1(O)C=C[C@@H]2C(C(=O)O)=CO[C@@H](O[C@@H]3O[C@H](CO)[C@@H](O)[C@H](O)[C@H]3O)[C@@H]21"
  max response [%]: 2.82
- compound: "CC(O)C/C=C/C=C/C(=O)OC1C=C2COC(=O)C2(O)C2(C)CCCC(C)(C)C12 (stereo not given)"
  max response [%]: -2.82
- compound: "CC1(C)CC=C(c2cnc3ccccc3c2)c2cc(C(=O)Nc3ccc(C(=O)O)cc3)ccc21"
  max response [%]: -2.18
- compound: "CC1CC(=O)[C@]2(O)C(C(=O)OCCc3ccc(O)c(O)c3)=CO[C@@H](O[C@@H]3O[C@H](CO)[C@@H](O)[C@H](O)[C@H]3O)[C@H]12 (stereo not given in full)"
  max response [%]: 0.72
- compound: "CC(CCc1ccc(O)cc1)O[C@@H]1O[C@H](CO[C@@H]2OC(CO)[C@H](O)[C@H]2O)[C@@H](O)[C@H](O)[C@H]1O (stereo not given in full)"
  max response [%]: -1.05
- compound: "COC(=O)C(Cc1ccccc1)NC(=O)c1ccccc1 (stereo not given)"
  max response [%]: -1.1
- compound: "O=C(Cn1c2ccccc2c2nc3n(c(=O)c21)CCS3)N1CCCC1"
  max response [%]: 1.74
- compound: "NC1Nc2ccccc2C1(N)CC1NC(=O)C(Cc2ccccc2)NC(=O)C(Cc2ccccc2)NC1=O (stereo not given)"
  max response [%]: 1.33
- compound: "COC(=O)C1=CO[C@@H](O[C@@H]2O[C@H](CO)[C@@H](O)[C@H](O)[C@H]2O)[C@@H]2[C@@H](C(=O)O)CC[C@H]12"
  max response [%]: 0.607
- compound: "COc1cncc(C#Cc2ccccn2)c1"
  max response [%]: -3.14
